System: Femur
Assay: Biodistribution in Sprague-Dawley rat femur at 15 uCi, iv after 30 mins
Format: ADME, organism-based
Settings: in vivo, 0.5 h
hey, just use Satisfied if measured Drug uptake is less than 1 % ID/g, otherwise Not satisfied

Determine whether this compound shows Drug uptake lower than 1 % ID/g (ties excluded): CCC(CF)Oc1ccc(COc2cnn(C(C)(C)C)c(=O)c2Cl)cc1 (configuration not stated)
Not satisfied

Determine whether this compound shows Drug uptake lower than 1 % ID/g (ties excluded): CC(C)(C)n1ncc(OCc2ccc(OCCCF)cc2)c(Cl)c1=O
Satisfied

Determine whether this compound shows Drug uptake lower than 1 % ID/g (ties excluded): [2H]C([2H])(Oc1cnn(C(C)(C)C)c(=O)c1Cl)c1ccc(COC([2H])([2H])C([2H])([2H])F)cc1
Satisfied

Determine whether this compound shows Drug uptake lower than 1 % ID/g (ties excluded): CC(F)COc1ccc(COc2cnn(C(C)(C)C)c(=O)c2Cl)cc1 (configuration not stated)
Not satisfied

Determine whether this compound shows Drug uptake lower than 1 % ID/g (ties excluded): CC(C)(C)n1ncc(OCc2ccc(CCCCF)cc2)c(Cl)c1=O
Satisfied

Determine whether this compound shows Drug uptake lower than 1 % ID/g (ties excluded): CC(F)CCc1ccc(COc2cnn(C(C)(C)C)c(=O)c2Cl)cc1 (configuration not stated)
Not satisfied

Determine whether this compound shows Drug uptake lower than 1 % ID/g (ties excluded): CC(C)(C)n1ncc(OCc2ccc(COCCF)cc2)c(Cl)c1=O
Satisfied

Values compiled from ChEMBL document CHEMBL1150282.
